Tested on: Ixodes ricinus
experiment_notes: In vitro Warm Plate Assay for ticks
Format: in vivo
study_conditions: Ixodes ricinus, 1% (Table 11); read-out: percentage of ticks affected on the Warm Plate
Counter-ions that a name gives are not always drawn.
assay_readout: pest or weed control at 1 %
Mention the unit after the number when you answer.

Each of the following entries comes with a recorded value; kindly state pest or weed control at 1 % for each.
1. Cc1ccc2c(c1)CC(C)(COC=O)C2 (stereo not shown) [(2,5-dimethyl-2-indanyl)methyl formate]
2. Cc1ccc2c(c1)CC(C)(C(C)O)C2 (stereo not shown)
3. Cc1cc(C)c2c(c1)CC(C)(CO)C2 (racemic)
4. COCC1(C)Cc2ccc(C)cc2C1 (stereo not shown)
5. CC1(CO)Cc2ccc(C(C)(C)C)cc2C1 (racemic)

["85%", "100%", "96%", "79%", "92%"]

Each of the following entries comes with a recorded value; kindly state pest or weed control at 1 % for each.
1. CC1(CO)Cc2ccccc2C1 [(2-methyl-1,3-dihydroinden-2-yl)methanol]
2. Cc1cc2c(cc1C)CC(C)(CO)C2
3. CC(C)(C)c1ccc2c(c1)CC1(COC1)C2
4. COC(=O)C1(C)Cc2ccc(C)cc2C1 (racemic)

1: 92%; 2: 77%; 3: 86%; 4: 100%

Request the reported pest or weed control at 1 % associated with Cc1ccc2c(c1)CC(C)(CO)C2 (stereo not shown) 92%

---

Tested on: Aedes aegypti
experiment_notes: In vitro Warm Body assay, mosquitoes landing on treated warm body
Format: in vivo
study_conditions: 0.0016% in ethanol (Table 6)
// returns False unless number of mosquitoes landed on the Warm Body is strictly below 60, in which case True

- CC1(C)OC[C@@]2(C)Cc3ccccc3[C@H]2O1 (racemic): True
- CC(=O)C1(C)Cc2ccc(C)c(C)c2C1 (racemic): True
- Cc1ccc2c(c1)[C@H]1OCOC[C@H]1C2 (racemic): False

Lab log: compare recorded number of mosquitoes landed on the Warm Body with 60; is it strictly lower for C[C@@H]1OC[C@]2(C)Cc3ccccc3[C@@H]2O1 (racemic) ? True

Lab log: compare recorded number of mosquitoes landed on the Warm Body with 60; is it strictly lower for Cc1ccc2c(c1)C[C@]1(C)COCO[C@H]21 (racemic) ? True

Lab log: compare recorded number of mosquitoes landed on the Warm Body with 60; is it strictly lower for c1ccc2c(c1)CC1COCOC21 (centres unmarked) ? False

Lab log: compare recorded number of mosquitoes landed on the Warm Body with 60; is it strictly lower for Cc1ccc2c(c1)[C@H]1OCOC[C@@]1(C)C2 (racemic) ? True

Lab log: compare recorded number of mosquitoes landed on the Warm Body with 60; is it strictly lower for Cc1ccc2c(c1)CCC(C)(CO)C2 (racemic) ? True

Lab log: compare recorded number of mosquitoes landed on the Warm Body with 60; is it strictly lower for CC(=O)C1(C)Cc2ccc(C)cc2C1 (racemic) ? False

---

System: Ixodes ricinus
experiment_notes: In vitro Warm Plate Assay for ticks
Format: in vivo
study_conditions: Ixodes ricinus, 0.0178% in ethanol (Table 12); read-out: percentage of ticks affected on the Warm Plate
For each entry below, report its pest or weed control at 0.0178 % value.
Give bare numbers, in %.

Example cases with answers are listed next.
* c1ccc2c(c1)CC1COCOC21 (stereo not shown) | 0
* Cc1ccc2c(c1)CC(C)(CO)C2 (stereo not shown) | 17
* CC1CCC(C(C)(C)O)C(O)C1 (stereo not shown) [PMD, reference compound] | 4

Shift focus to the following entry.
Request the reported pest or weed control at 0.0178 % associated with Cc1cc(C)c2c(c1)CC(C)(CO)C2 (racemic) 0

---

System: Ixodes ricinus
experiment_notes: In vitro Warm Plate Assay for ticks
Type: in vivo
study_conditions: Ixodes ricinus, 0.447% in ethanol (Table 12); read-out: percentage of ticks affected on the Warm Plate
For each entry below, report its pest or weed control at 0.447 % value.
Mention the unit after the number when you answer.

• CC1CCC(C(C)(C)O)C(O)C1 (stereo not shown) [PMD, reference compound] = 96%
• Cc1cc(C)c2c(c1)CC(C)(CO)C2 (racemic) = 92%
• c1ccc2c(c1)CC1COCOC21 (stereo not shown) = 67%

Shift focus to the following entry.
Notebook entry, Ixodes ricinus assay: pest or weed control at 0.447 % of Cc1ccc2c(c1)CC(C)(CO)C2 (stereo not shown) = ? 100%

---

Test system: Ixodes ricinus
experiment_notes: In vitro Warm Plate Assay for ticks
Format: in vivo
study_conditions: Ixodes ricinus, 0.04% (Table 11); read-out: percentage of ticks affected on the Warm Plate
Counter-ions that a name gives are not always drawn.
For each entry below, report its pest or weed control at 0.04 % value.
Give bare numbers, in %.

Example cases with answers are listed next.
• Cc1cc2c(cc1C)CC(C)(CO)C2 = 38
• Cc1ccc2c(c1)CC(C)(COC=O)C2 (stereo not shown) [(2,5-dimethyl-2-indanyl)methyl formate] = 7
• COC(=O)C1(C)Cc2ccc(C)cc2C1 (racemic) = 18

Shift focus to the following entry.
Request the reported pest or weed control at 0.04 % associated with CC1(CO)Cc2ccc(C(C)(C)C)cc2C1 (racemic) 8

---

Tested on: Ixodes ricinus
experiment_notes: In vitro Warm Plate Assay for ticks
Assay type: in vivo
study_conditions: Ixodes ricinus, 0.04% (Table 10); read-out: percentage of ticks affected on the Warm Plate
// returns Condition not met unless pest or weed control at 0.04 % is strictly below 8%, in which case Condition met

Consider the following illustrative entries.
- Cc1ccc2c(c1)CC(CO)C2 (racemic): Condition met
- N#CC1Cc2ccccc2C1 [2,3-dihydro-1H-indene-2-carbonitrile]: Condition not met
- CC(=O)OCC1(C)Cc2ccccc2C1: Condition not met
- COC(C)OCC1(C)Cc2ccc(C)cc2C1 (centres unmarked): Condition not met
- CC(C)c1ccc2c(c1)CC(C)(CO)C2 (racemic) [5-isopropyl-2-methyl-2-indanmethanol]: Condition not met
- CC(=O)C1(C)Cc2ccc(C)cc2C1 (racemic): Condition met

Lab log: compare recorded pest or weed control at 0.04 % with 8%; is it strictly lower for COCOCC1(C)Cc2ccc(C)cc2C1 (centres unmarked) ? Condition not met

Lab log: compare recorded pest or weed control at 0.04 % with 8%; is it strictly lower for CC(=O)C1(C)Cc2ccc(C)c(C)c2C1 (racemic) ? Condition met

Lab log: compare recorded pest or weed control at 0.04 % with 8%; is it strictly lower for OCC1Cc2ccccc2C1 [2,3-dihydro-1H-inden-2-ylmethanol] ? Condition not met

---

For each entry below, report its pest or weed control at 0.008 % value.
Tested on: Ixodes ricinus
experiment_notes: In vitro Warm Plate Assay for ticks
Format: in vivo
study_conditions: Ixodes ricinus, 0.008% in ethanol (Table 12); read-out: percentage of ticks affected on the Warm Plate
Answers are plain numbers, in %.

• Cc1ccc2c(c1)CC(C)(CO)C2 (stereo not shown) = 0

Each of the following entries comes with a recorded value; kindly state pest or weed control at 0.008 % for each.
1. CC1CCC(C(C)(C)O)C(O)C1 (stereo not shown) [PMD, reference compound]
2. c1ccc2c(c1)CC1COCOC21 (stereo not shown)
3. Cc1cc(C)c2c(c1)CC(C)(CO)C2 (racemic)

[4, 0, 8]

---

Tested on: Ixodes ricinus
experiment_notes: In vitro Warm Plate Assay for ticks
Type: in vivo
study_conditions: Ixodes ricinus, 0.2% (Table 10); read-out: percentage of ticks affected on the Warm Plate
For each entry below, report its pest or weed control at 0.2 % value.
Numbers only, in %.

- N#CC1Cc2ccccc2C1 [2,3-dihydro-1H-indene-2-carbonitrile]: 71
- CC(C)c1ccc2c(c1)CC(C)(CO)C2 (racemic) [5-isopropyl-2-methyl-2-indanmethanol]: 87
- COC(C)OCC1(C)Cc2ccc(C)cc2C1 (centres unmarked): 64
- CC(=O)OCC1(C)Cc2ccccc2C1: 58

Shift focus to the following entry.
Notebook entry, Ixodes ricinus assay: pest or weed control at 0.2 % of CC(=O)C1(C)Cc2ccc(C)cc2C1 (racemic) = ? 42

---

Tested on: Ixodes ricinus
experiment_notes: In vitro Warm Plate Assay for ticks
Type: in vivo
study_conditions: Ixodes ricinus, 0.04% in ethanol (Table 12); read-out: percentage of ticks affected on the Warm Plate
For each entry below, report its pest or weed control at 0.04 % value.
Numbers only, in %.

Example cases with answers are listed next.
* Cc1ccc2c(c1)CC(C)(CO)C2 (stereo not shown) [ingredient #2] | 0
* CC1CCC(C(C)(C)O)C(O)C1 (stereo not shown) [PMD, reference compound] | 12
* c1ccc2c(c1)CC1COCOC21 (stereo not shown) [ingredient #3] | 13

Request the reported pest or weed control at 0.04 % associated with Cc1cc(C)c2c(c1)CC(C)(CO)C2 (racemic) [ingredient #1] 57

---

System: Ixodes ricinus
experiment_notes: In vitro Warm Plate Assay for ticks
Assay type: in vivo
study_conditions: Ixodes ricinus, 0.0267% in ethanol (Table 12); read-out: percentage of ticks affected on the Warm Plate
assay_readout: pest or weed control at 0.0267 % (%)
Numbers only, in %.

- c1ccc2c(c1)CC1COCOC21 (stereo not shown): 0
- Cc1ccc2c(c1)CC(C)(CO)C2 (stereo not shown): 38

Each of the following entries comes with a recorded value; kindly state pest or weed control at 0.0267 % for each.
1. Cc1cc(C)c2c(c1)CC(C)(CO)C2 (racemic)
2. CC1CCC(C(C)(C)O)C(O)C1 (stereo not shown) [PMD, reference compound]

7
0
